Hi there, I'd appreciate the recorded inhibition at 1 µM for every entry that follows.
biological target: Human TRPV3 (Homo sapiens, UniProt Q8NET8); construct: expressed in transfected cells; host or cells: CHO cells (selected with G-418); test: 45Calcium uptake assay: inhibition of 2-APB induced cellular uptake of radioactive calcium; assay type: cell-based; details: 1 μM test compound; human TRPV3 expressing CHO cells; 2-APB 500 μM; read-out: Percentage Inhibition (1 μM)
Sequence (Q8NET8 whole entry): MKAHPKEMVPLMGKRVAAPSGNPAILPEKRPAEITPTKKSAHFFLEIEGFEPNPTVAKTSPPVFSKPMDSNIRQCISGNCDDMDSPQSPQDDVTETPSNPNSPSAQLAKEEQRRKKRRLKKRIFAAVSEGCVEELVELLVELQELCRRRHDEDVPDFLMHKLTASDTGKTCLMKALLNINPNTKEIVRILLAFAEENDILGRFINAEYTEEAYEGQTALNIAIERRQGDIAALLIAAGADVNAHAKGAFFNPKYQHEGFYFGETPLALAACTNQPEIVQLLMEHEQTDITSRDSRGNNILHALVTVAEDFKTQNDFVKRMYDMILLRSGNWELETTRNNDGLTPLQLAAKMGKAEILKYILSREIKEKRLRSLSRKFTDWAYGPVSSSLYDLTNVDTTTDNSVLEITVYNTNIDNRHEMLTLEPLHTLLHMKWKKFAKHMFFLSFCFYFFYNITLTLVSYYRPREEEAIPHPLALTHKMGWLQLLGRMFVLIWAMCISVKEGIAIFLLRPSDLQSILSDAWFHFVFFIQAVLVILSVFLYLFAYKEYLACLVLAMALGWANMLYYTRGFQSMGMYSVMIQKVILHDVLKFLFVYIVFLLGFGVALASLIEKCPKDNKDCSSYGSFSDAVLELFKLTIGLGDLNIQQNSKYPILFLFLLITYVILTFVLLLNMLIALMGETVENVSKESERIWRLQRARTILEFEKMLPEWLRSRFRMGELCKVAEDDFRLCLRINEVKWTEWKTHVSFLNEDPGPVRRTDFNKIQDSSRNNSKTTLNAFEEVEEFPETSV
Answer format: numeric, % implied, no suffix.

Prompt: Quick one: inhibition at 1 µM of CCCCCOc1c(/C=C/c2nc3cc(F)cc(F)c3n2-c2ccc(C#N)cn2)cccc1OC ?
Completion: 92.7

Prompt: Quick one: inhibition at 1 µM of COc1cccc(/C=C/c2nc3cc(F)c(F)cc3n2-c2ncccc2C#N)c1OC1CCCC1 ?
Completion: 44.8

Prompt: Quick one: inhibition at 1 µM of CCC(CC)Oc1c(/C=C/c2nc3cc(F)c(F)cc3n2-c2ccc(C#N)cn2)cccc1OC ?
Completion: 93.2

Prompt: Quick one: inhibition at 1 µM of CCOC(=O)c1ccc(-n2c(/C=C/c3cccc(OC)c3OC3CCCC3)nc3ccccc32)nn1 ?
Completion: 82.9

Prompt: Quick one: inhibition at 1 µM of COc1cccc(/C=C/c2nc3ccccc3n2-c2ccc(C(F)(F)F)cn2)c1OCc1ccccc1 ?
Completion: 77.1

Prompt: Quick one: inhibition at 1 µM of COc1ccccc1-n1c(/C=C/c2cccc(OC)c2OC2CCCC2)nc2ccccc21 ?
Completion: 9.07

Prompt: Quick one: inhibition at 1 µM of COc1cccc(/C=C/c2nc3ccccc3n2-c2ncccc2C(F)(F)F)c1OC1CCCC1 ?
Completion: 84.7

Prompt: Quick one: inhibition at 1 µM of COc1cccc(/C=C/c2nc3ccccc3n2-c2ccc(C)cc2)c1OCC1CC1 ?
Completion: 47.3
